Consider the following compounds and their measured pIC50 readings.
experimental.system: αvβ1 (Homo sapiens, UniProt P05556+P06756)
Sequence (P06756 31-992 limits assumed): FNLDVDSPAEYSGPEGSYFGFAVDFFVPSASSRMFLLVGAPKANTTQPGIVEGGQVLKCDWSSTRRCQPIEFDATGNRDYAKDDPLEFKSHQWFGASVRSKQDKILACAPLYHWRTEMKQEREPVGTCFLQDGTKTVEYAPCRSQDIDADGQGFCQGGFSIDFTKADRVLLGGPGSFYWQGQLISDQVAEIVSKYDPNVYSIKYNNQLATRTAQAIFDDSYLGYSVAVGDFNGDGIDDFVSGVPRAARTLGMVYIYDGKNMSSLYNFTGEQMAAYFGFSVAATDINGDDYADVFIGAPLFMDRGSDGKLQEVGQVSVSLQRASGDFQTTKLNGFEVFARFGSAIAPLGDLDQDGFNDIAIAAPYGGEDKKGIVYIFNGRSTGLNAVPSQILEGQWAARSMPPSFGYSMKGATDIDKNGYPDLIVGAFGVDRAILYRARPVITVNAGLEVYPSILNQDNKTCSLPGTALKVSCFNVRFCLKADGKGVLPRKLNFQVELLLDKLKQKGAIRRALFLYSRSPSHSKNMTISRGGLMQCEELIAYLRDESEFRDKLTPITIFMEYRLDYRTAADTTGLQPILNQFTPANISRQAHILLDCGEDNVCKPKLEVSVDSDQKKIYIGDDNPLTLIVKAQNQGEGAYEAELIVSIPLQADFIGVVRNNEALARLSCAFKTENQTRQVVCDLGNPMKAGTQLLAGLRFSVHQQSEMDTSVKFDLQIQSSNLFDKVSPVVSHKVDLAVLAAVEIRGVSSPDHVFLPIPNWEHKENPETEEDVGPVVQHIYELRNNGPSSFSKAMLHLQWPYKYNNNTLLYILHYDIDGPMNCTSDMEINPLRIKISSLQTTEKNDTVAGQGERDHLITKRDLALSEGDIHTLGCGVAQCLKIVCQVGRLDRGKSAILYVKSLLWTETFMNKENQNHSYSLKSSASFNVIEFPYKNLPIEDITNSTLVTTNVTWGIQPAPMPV
Sequence (P05556 21-728 limits assumed): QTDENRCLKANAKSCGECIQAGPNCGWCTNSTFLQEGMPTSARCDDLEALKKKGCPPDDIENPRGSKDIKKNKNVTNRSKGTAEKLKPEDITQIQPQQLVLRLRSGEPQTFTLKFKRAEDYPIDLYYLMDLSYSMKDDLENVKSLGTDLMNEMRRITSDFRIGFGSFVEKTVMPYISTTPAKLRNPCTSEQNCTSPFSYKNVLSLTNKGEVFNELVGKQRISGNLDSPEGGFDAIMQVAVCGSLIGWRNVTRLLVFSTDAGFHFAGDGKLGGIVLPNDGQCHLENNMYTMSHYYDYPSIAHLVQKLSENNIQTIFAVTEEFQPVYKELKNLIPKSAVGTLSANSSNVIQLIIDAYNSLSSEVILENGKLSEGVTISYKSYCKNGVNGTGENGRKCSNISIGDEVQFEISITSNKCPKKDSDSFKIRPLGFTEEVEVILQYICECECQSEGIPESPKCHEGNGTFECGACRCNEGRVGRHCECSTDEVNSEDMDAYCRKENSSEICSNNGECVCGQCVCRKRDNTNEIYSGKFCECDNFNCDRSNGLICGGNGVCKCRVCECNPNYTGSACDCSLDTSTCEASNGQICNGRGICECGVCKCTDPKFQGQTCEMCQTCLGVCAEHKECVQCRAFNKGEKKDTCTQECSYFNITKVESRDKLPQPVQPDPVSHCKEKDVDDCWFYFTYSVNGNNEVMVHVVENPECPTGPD
measurement.notes: Solid Phase Integrin αvβ1 Assay
pIC50: −log10 of the molar value.

Worked examples, 5 compounds total:
O=C(O)[C@@H](CO[C@@H]1CCCN(Cc2ccc3c(n2)NCCC3)C1)c1ccccc1 [Compound 389]; < 6.00
O=C(NC[C@H](C(=O)O)c1cccc2c1cnn2CC1CC1)[C@@H]1CCCN(CCCc2ccc3c(n2)NCCC3)C1 [Compound 315]; > 7.00
O=C(O)C[C@H](NC(=O)[C@@H]1CCCN(CCCc2ccc3c(n2)NCCC3)C1)c1ccccc1C1CC1 [Compound 556]; 6.00 to 7.00
O=C(O)[C@@H](CCO[C@@H]1CCCN(CCCc2ccc3c(n2)NCCC3)C1)NC(=O)C12CCC(CC1)CC2 [Compound 331]; > 7.00
O=C(NC[C@H](Nc1cncc(-c2ccccc2)c1)C(=O)O)[C@@H]1CCCN(CCCc2ccc3c(n2)NCCC3)C1 [Compound 361]; > 7.00

Next:
Tell me the measured pIC50 of O=C(O)[C@@H](CCO[C@@H]1CCCN(CCCc2ccc3c(n2)NCCC3)C1)Nc1ncnc2cc(C(F)(F)F)ccc12 [Compound 497] , please. 6.00 to 7.00
